Origin of measurements: patent US20250057802A1

Test system: HEp-2 cells
PROCEDURE DETAILS: in vitro cytotoxicity analysis (CellTiter-Glo Luminescent Cell Viability Assay)
Assay type: cell-based, human
Parameters: unit not given here
MEASUREMENT SETUP: without RSV-infection, 48 h post-treatment
Provide the recorded Cytotoxic concentration on HEp-2 cells for the entries that follow.

Lab book: Cytotoxic concentration on HEp-2 cells of O=C(OCC(COC(=O)c1cc(O)c(O)c(O)c1)COC(=O)c1cc(O)c(O)c(O)c1)c1cc(O)c(O)c(O)c1 [Compound 10] noted as 75145

Lab book: Cytotoxic concentration on HEp-2 cells of O=C(OCCOCCOC(=O)c1cc(O)c(O)c(O)c1)c1cc(O)c(O)c(O)c1 [Compound 5] noted as 638066

Lab book: Cytotoxic concentration on HEp-2 cells of O=C(OCCCCCOC(=O)c1cc(O)c(O)c(O)c1)c1cc(O)c(O)c(O)c1 [Compound 2] noted as >80000

Lab book: Cytotoxic concentration on HEp-2 cells of CC(CNC(=O)c1ccc(O)c(O)c1)(CNC(=O)c1ccc(O)c(O)c1)CNC(=O)c1ccc(O)c(O)c1 [Compound 23] noted as >80000

Lab book: Cytotoxic concentration on HEp-2 cells of O=C(NCCN(CCNC(=O)c1cc(O)c(O)c(O)c1)C(=O)c1cc(O)c(O)c(O)c1)c1cc(O)c(O)c(O)c1 [Compound 17] noted as 36216

Lab book: Cytotoxic concentration on HEp-2 cells of CC(CNC(=O)c1ccc2c(c1)OCO2)(CNC(=O)c1ccc2c(c1)OCO2)CNC(=O)c1ccc2c(c1)OCO2 [Compound 21] noted as >80000

Lab book: Cytotoxic concentration on HEp-2 cells of NC(COC(=O)c1cc(O)c(O)c(O)c1)COC(=O)c1cc(O)c(O)c(O)c1 [Compound 8] noted as 66234

Lab book: Cytotoxic concentration on HEp-2 cells of CC(CNC(=O)c1ccc(O)cc1O)(CNC(=O)c1ccc(O)cc1O)CNC(=O)c1ccc(O)cc1O [Compound 22] noted as 17473

Lab book: Cytotoxic concentration on HEp-2 cells of O=C(OCC(COC(=O)c1cc(O)c(O)c(O)c1)OC(=O)c1cc(O)c(O)c(O)c1)c1cc(O)c(O)c(O)c1 [Compound 9] noted as 49099.5

Lab book: Cytotoxic concentration on HEp-2 cells of CC(CNC(=O)c1cccc(O)c1O)(CNC(=O)c1cccc(O)c1O)CNC(=O)c1cccc(O)c1O [Compound 24] noted as 5822.5
